Experiment notes: NCI Yeast Anticancer Drug Screen. Data for the sgs1 mgt1 strain (AID 161);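 also: 0% = growth of cultures given vehicle only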
Condition set: S. cerevisiae sgs1 mgt1 strain, at 50.0 µM
This is part of a sample that, as a whole, favours compounds with a hit. Of some 79,000 tested, about 15% had one in any assay. The source made the active and inactive calls. Rule as the data show it: active = growth inhibition above about 70%; inactive = the rest.
Response enum: active, inactive

The following compounds have reported results that may help.
Compound	Discrete label
CNP1(=O)OC(c2ccccc2)=CCN1CCCl (configuration not stated)	inactive
CCn1nnnc1N	inactive
CN(C)C(=S)Oc1ccc(S(=O)(=O)F)cc1	inactive
CC(=O)OC1CCC2(C)C3CCC4(C)C(c5ccc(=O)oc5)CC5OC54C3CCC2(O)C1 (configuration not stated)	inactive
CC12CCC3C(CCC4Cc5nc6nnnn6cc5CC43C)C1CCC2O (configuration not stated)	inactive
Cc1cccc(C(=O)[O][Pb]([CH3])([CH3])[CH3])c1	inactive
ClCCN(CCCl)c1ccc(/C=N/N2CCN(/N=C/c3ccc(N(CCCl)CCCl)cc3)CC2)cc1	inactive
COc1ccc([As+](c2ccccc2)(c2ccccc2)c2ccccc2)cc1	active
NC(=O)/C=C/C(=O)O	inactive
COc1ccc(C(c2c(O)c3ccccc3oc2=O)c2c(O)c3ccccc3oc2=O)cc1	inactive

(Q) Please state the recorded outcome for this compound: `CCN1CCC2(CC1)COCc1ccccc12`
(A) inactive

(Q) // outcome(item) with item = O=C1SCCC1CO (configuration not stated)
(A) inactive

---

Experiment notes: NCI Yeast Anticancer Drug Screen. Data for the rad50 strain (AID 155);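 also: 0% = growth of vehicle-only cultures of the same strain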
Condition set: S. cerevisiae rad50 strain growth inhibition; at 50.0 µM; active compounds read high
About 79,000 compounds went through this panel and 15% of them were active in at least one assay; those are over-represented in the sample as a whole.
Output 1 for growth inhibition not less than 40%; output -1 otherwise.

Compound	Discrete label
C[n+]1cccc(C2CCC[N+]2(C)C)c1 (stereo unspecified)	-1
Brc1ccc(NP(Br)(c2ccccc2)(c2ccccc2)c2ccccc2)cc1	1
ClC1=C(Cl)C2(Cl)C(Cl)CC1(Cl)C2(Cl)Cl (stereo unspecified)	1
CCCCCCCCCCCCC(=O)O.[Pb]	-1
COc1ccc2[nH]cc(CCN)c2c1	-1
N.N.N.N.N#N.N#N.[Cl-].[Os+6]	-1
CCC[CH2][Pb]([CH2]CCC)([CH2]CCC)[n]1ccnc1	1
CCOP(=O)(OCC)/C(C#N)=C/c1cc(O)ccc1O	-1

(Q) Kindly determine if growth inhibition recorded for `C(=P(c1ccccc1)(c1ccccc1)c1ccccc1)[P+](c1ccccc1)(c1ccccc1)c1ccccc1.[Cl][Fe]([Cl])([Cl])[Br]` is above or exactly 40%.
(A) 1

(Q) Determine whether this compound has growth inhibition no lower than 40%: `COc1cc([N+](=O)[O-])c2ncccc2c1[N+](=O)[O-]`
(A) 1

---

Below is a list of entries, each paired with its recorded growth inhibition value.
Experiment notes: NCI Yeast Anticancer Drug Screen. Data for the sgs1 mgt1 strain (AID 161);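 also: 0% = growth of cultures given vehicle only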
Condition set: S. cerevisiae sgs1 mgt1 strain, at 5.0 µM (retest, dose inferred, filed as 0.5), active compounds read high
This is part of a sample that, as a whole, favours compounds with a hit. Of some 79,000 tested, about 15% had one in any assay.
Give the value, in units of %, as a plain number.

Solved cases below.
Compound	growth inhibition [%]
COc1cc(N(CC(C)Br)CC(C)Br)ccc1N=Nc1ccccc1C(=O)O (stereo unspecified)	54
CC(C)c1ccccc1OP(=S)(S)Oc1ccccc1C(C)C	1
[N-]=[N+]=Nc1c([N+](=O)[O-])c(=O)n2c3c(cccc13)CCC2	28
OC1CC([CH2][Hg][I])OC([CH2][Hg][I])C1 (stereo unspecified)	99
Cc1ccc(OP(=O)(Oc2ccc(C)cc2)Oc2ccc(C)cc2)cc1.Cc1ccc(OP(=O)(Oc2ccc(C)cc2)Oc2ccc(C)cc2)cc1.Cc1ccc(OP(=O)(Oc2ccc(C)cc2)Oc2ccc(C)cc2)cc1.Cc1ccc(OP(=O)(Oc2ccc(C)cc2)Oc2cccc(C)c2)cc1.[Cd+2].[O-][Cl+3]([O-])([O-])O	9
C[As](C)SCCC(N)C(=O)NC(CCS[As](C)C)C(=O)O (stereo unspecified)	-3

Could you now look at the following compound, please?
(Q) Output growth inhibition of OC1CCCC2CCCNC12 (stereo unspecified)
(A) 97

---

Experiment notes: NCI Yeast Anticancer Drug Screen. Data for the mlh1 rad18 strain (AID 175)
Condition set: S. cerevisiae mlh1 rad18 strain growth inhibition; at 50.0 µM; active compounds read high
This is part of a sample that, as a whole, favours compounds with a hit. Of some 79,000 tested, about 15% had one in any assay. The source made the active and inactive calls. No stated cut-off is given here; in the data, active means growth inhibition above about 70%; inactive means the rest.
growth inhibition values for the molecules below.

Molecule	growth inhibition
NCC1OC(OC2C(CO)OC(OC3C(O)C(N)CC(N)C3OC3OC(CN)C(O)C(O)C3N)C2O)C(N)C(O)C1O (stereo unspecified)	6.8% (inactive)

Query molecule follows.
(Q) Return reported growth inhibition. Input molecule: C[C@]12CCC(O)CC1=CC[C@@H]1[C@@H]2CC[C@]2(C)C(=O)[C@H](n3ccnc3)C[C@@H]12 (stereo partly specified)
(A) 75.6% (active)

---

Measured growth inhibition, listed per entry.
Experiment notes: NCI Yeast Anticancer Drug Screen. Data for the sgs1 mgt1 strain (AID 161);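 also: 0% = growth of cultures given vehicle only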
Condition set: S. cerevisiae sgs1 mgt1 strain, at 50.0 µM (retest, dose inferred, filed as 5.0), active compounds read high
The panel holds about 79,000 compounds, 15% with a hit somewhere; the sample as a whole holds those more often.
Report the figure in % without appending any unit label.

Compound	Units	growth inhibition
CC1(C)N=C(N)N=C(N)N1c1ccc(OCC(=O)Nc2cccc(S(=O)(=O)F)c2)c(Cl)c1	%	63

(Q) Give the reported value of growth inhibition for this record: `C/C(CC(=O)Nc1ccc([N+](=O)[O-])cc1)=N\Nc1ccc([N+](=O)[O-])cc1[N+](=O)[O-]`
(A) 40

---

Experiment notes: NCI Yeast Anticancer Drug Screen. Data for the mlh1 rad18 strain (AID 175)
Condition set: S. cerevisiae mlh1 rad18 strain growth inhibition; at 5.0 µM (retest, dose inferred, filed as 0.5); active compounds read high
The panel holds about 79,000 compounds, 15% with a hit somewhere; the sample as a whole holds those more often.
Each entry gets 0 if its growth inhibition stays under 90%, and 1 if its growth inhibition is 90% or above.

Solved cases (2 shown):
Compound	Discrete label
N#CC(C#N)=Cc1c(O)ccc2ccccc12	0
CN(C)C(=O)OC1C(=O)N(C)c2ccc(Cl)cc2C2(c3ccccc3)N1C2(Cl)Cl (stereo unspecified)	0

(Q) Record `O=[N+]([O-])/C=C/c1ccccc1Cl` ; criterion: growth inhibition no lower than 90%. Met?
(A) 1

(Q) Does the compound `CCC(CC)COC(=O)CI` have recorded growth inhibition that is 90% or more?
(A) 0

(Q) Evaluate `CN(C)c1ccc(C(c2c(O)c3ccccc3oc2=O)c2c(O)c3ccccc3oc2=O)cc1` : growth inhibition at minimum 90%?
(A) 0

---

Experiment notes: NCI Yeast Anticancer Drug Screen. Data for the sgs1 mgt1 strain (AID 161);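 also: 0% = growth of cultures given vehicle only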
Condition set: S. cerevisiae sgs1 mgt1 strain, at 5.0 µM (retest, dose inferred, filed as 0.5)
This is part of a sample that, as a whole, favours compounds with a hit. Of some 79,000 tested, about 15% had one in any assay. Active and inactive are the calls of the source. No stated cut-off is given here; in the data, active means growth inhibition above about 70%; inactive means the rest.
Pick from active, inactive when you respond.

Known results for molecules:
Molecule	Discrete label
COc1cc(/C=C(/C)[N+](=O)[O-])c([N+](=O)[O-])cc1OC	inactive
O=C(OCCl)c1ccccc1	inactive
Cc1sc(Cc2ccccc2)nc1-c1ccc(N=Cc2ccc(N(CCCl)CCCl)cc2)cc1	inactive

(Q) Tell me the assay call for `C1OCC2[CH2][Hg][S][Hg][CH2]C1O2` please.
(A) inactive

(Q) State the result this test recorded for CC1=CC2CC(C)=C(CC[C@]3(C)CC[C@H]([C@@H](C)C(=O)O)OO3)C(C)(C)C2CC1 (stereo partly specified) .
(A) inactive

(Q) Hello, I am checking results. What call was entered for `O=P(O)(Oc1ccccc1)Oc1ccccc1.[Ag]` ?
(A) active

(Q) Hello, I am checking results. What call was entered for `CN(C)c1ccc(C2N(Cc3ccc(N(CCCl)CCCl)cc3)CCCN2Cc2ccc(N(CCCl)CCCl)cc2)cc1` ?
(A) inactive

(Q) Could you please tell me the result logged for `CN(C)C(=S)Nc1nnc(NC23CC4CC(CC(C4)C2)C3)s1` in this assay?
(A) inactive

(Q) What was the test verdict on `O=c1[nH]c2ccccc2n1C1CCN(CCCC(c2ccc(F)cc2)c2ccc(F)cc2)CC1` ?
(A) inactive

(Q) Recorded test call requested for `ClCCN1CCOCC1`
(A) active

(Q) # outcome recorded in this test, key = `CCCCCc1cc(/C=C2/N=C(c3ccc[nH]3)C=C2OC)[nH]c1C`
(A) active

---

Experiment notes: NCI Yeast Anticancer Drug Screen. Data for the bub3 strain (AID 167)
Condition set: S. cerevisiae bub3 mutant strain, at 50.0 µM, active compounds read high
Compounds without any hit were thinned out: in the full panel of roughly 79,000, 15% have a hit.
Each item that follows carries a reported growth inhibition.
Please state the figure in %; there is no need to write the unit.

Molecule	growth inhibition (%)
N[C@H]1C2C3CC4C5CC(C42)C1(c1ccccc1)C53 (stereo partly specified)	-12

(Q) Supply recorded growth inhibition for `O=[N+]([O-])c1ccc([Se]c2ncccn2)c([N+](=O)[O-])c1` here.
(A) -3.15

(Q) Input `N.N.N.N.N.O=C([O-])CCl.[Co+3].[O-][Cl+3]([O-])([O-])[O-]` , output reported growth inhibition.
(A) -16.6

(Q) Answer with the recorded growth inhibition for the molecule listed here: `Cc1[nH]cc2c1C(c1ccccc1F)=NCC(=O)N2`
(A) 8.4

(Q) Tell me its growth inhibition given `C(#Cc1ccccc1)c1ccccc1` as the entry.
(A) -11.3

(Q) Provide growth inhibition value for the following molecule: `COc1ccc2nc3ccccc3c(NCCCCCCN(CCCl)CCCl)c2c1`
(A) 48.4
